Listing of entries alongside the reported Kd.
target: mouse EGFR (mouse, UniProt Q01279 25-647, limits assumed); assay: SPR Biacore
# number only, unit nM dropped from output

Can you share its Kd? I mean this binder: I1-GS10-E5 pegylated, His-tagged (designed binder, 40 kDa branched PEG on the Cys of the C-terminal Cys tail, also called I1-GS10-E5 (with Peg)) MGVSDVPRDLEVVAATPTSLLISWSARLKVARYYRITYGETGGNSPVQEFTVPKNVYTATISGLKPGVDYTITVYAVTRFRDYQPISINYRTEIDKGSGSGSGSGSGSGSGSGSGSVSDVPRDLEVVAATPTSLLISWWAPVDRYQYYRITYGETGGNSPVQEFTVPRDVYTATISGLKPGVDYTITVYAVTDYKPHADGPHTYHESPISINYRTEIDKPCQHHHHHH
3.4

For the binder I1-GS10-E85 pegylated, His-tagged (designed binder, 40 kDa branched PEG on the Cys of the C-terminal Cys tail) MGVSDVPRDLEVVAATPTSLLISWSARLKVARYYRITYGETGGNSPVQEFTVPKNVYTATISGLKPGVDYTITVYAVTRFRDYQPISINYRTEIDKGSGSGSGSGSGSGSGSGSGSVSDVPRDLEVVAATPTSLLISWTQGSTHYQYYRITYGETGGNSPVQEFTVPGMVYTATISGLKPGVDYTITVYAVTDYFDRSTHEYKYRTTPISINYRTEIDKPCQHHHHHH , what Kd is on record?
13.9

I would be grateful if you could share the reported Kd for E4-GS10-I1 pegylated, His-tagged (designed binder, 40 kDa branched PEG on the Cys of the C-terminal Cys tail, also called E4-GS10-I1 (with Peg)) MGVSDVPRDLEVVAATPTSLLISWHERDGSRQYYRITYGETGGNSPVQEFTVPGGVRTATISGLKPGVDYTITVYAVTDYFNPTTHEYIYQTTPISINYRTEIDKGSGSGSGSGSGSGSGSGSGSVSDVPRDLEVVAATPTSLLISWSARLKVARYYRITYGETGGNSPVQEFTVPKNVYTATISGLKPGVDYTITVYAVTRFRDYQPISINYRTEIDKPCQHHHHHH .
6.9

Param item = I1-GS10-E4 pegylated, His-tagged (designed binder, 40 kDa branched PEG on the Cys of the C-terminal Cys tail) MGVSDVPRDLEVVAATPTSLLISWSARLKVARYYRITYGETGGNSPVQEFTVPKNVYTATISGLKPGVDYTITVYAVTRFRDYQPISINYRTEIDKGSGSGSGSGSGSGSGSGSGSVSDVPRDLEVVAATPTSLLISWHERDGSRQYYRITYGETGGNSPVQEFTVPGGVRTATISGLKPGVDYTITVYAVTDYFNPTTHEYIYQTTPISINYRTEIDKPCQHHHHHH ; retrieve measured Kd.
5.5

Every entry's value here was drawn from patent US20180037631A1.
